- SYSTEM NAME: T1, Homo sapiens factor Bb protein (human, UniProt P00751 260-764)
- T1 construct: Bought from CompTech (A155); also called complement factor Bb; human factor Bb
- T1 sequence (P00751 260-764 limits assumed): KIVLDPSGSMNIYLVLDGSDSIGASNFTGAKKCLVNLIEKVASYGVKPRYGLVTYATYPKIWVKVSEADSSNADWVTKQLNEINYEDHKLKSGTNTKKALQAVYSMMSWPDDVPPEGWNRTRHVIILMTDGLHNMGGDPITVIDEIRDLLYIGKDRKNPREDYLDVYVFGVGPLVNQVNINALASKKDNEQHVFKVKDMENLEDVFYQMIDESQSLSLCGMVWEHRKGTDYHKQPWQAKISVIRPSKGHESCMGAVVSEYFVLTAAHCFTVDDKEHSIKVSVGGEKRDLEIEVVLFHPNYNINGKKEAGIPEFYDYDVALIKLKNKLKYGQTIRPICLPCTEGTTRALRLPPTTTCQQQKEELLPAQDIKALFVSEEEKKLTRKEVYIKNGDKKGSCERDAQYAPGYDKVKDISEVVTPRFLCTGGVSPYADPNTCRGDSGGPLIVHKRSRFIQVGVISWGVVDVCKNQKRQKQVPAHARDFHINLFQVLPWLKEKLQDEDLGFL
- PROCEDURE DETAILS: SPR single cycle kinetics, IgG on Protein A chip, factor Bb analyte

BINDER: VH2/Vκ1 (antibody, V domains shown) VH: EVQLVESGGGLVKPGGSLRLSCAASGFTFSNYAMSWVRQAPGKGLEWVATISNRGSYTYYPDSVKGRFTISRDNAKNSLYLQMNSLRAEDTALYYCARERPMDYWGQGTLVTVSS VL: DIVMTQSPSFLSASVGDRVTITCKASQDVGTAVAWYQQKPGQPPKLLIYWASTRHTGVPDRFTGSGSGTDFTLTISSLQSEDFAVYFCHQHSSNPLTFGQGTKLEIK
kon [M⁻¹ s⁻¹]: 180000
--
BINDER: VH3/Vκ2 (antibody, V domains shown) VH: EVQLVESGGGLVKPGGSLRLSCAASGFTFSNYAMSWVRQAPGKGLEWVATISNRGSYTYYADSVKGRFTISRDNAKNSLYLQMNSLRAEDTALYYCARERPMDYWGQGTLVTVSS VL: DIVMTQSPSTLSASVGDRVTITCKASQDVGTAVAWYQQKPGQPPKLLIYWASTRHTGVPDRFTGSGSGTDFTLTISSLQAEDFAVYFCHQHSSNPLTFGQGTKLEIK
kon [M⁻¹ s⁻¹]: 236000
--
BINDER: VH2/Vκ4 (antibody, V domains shown) VH: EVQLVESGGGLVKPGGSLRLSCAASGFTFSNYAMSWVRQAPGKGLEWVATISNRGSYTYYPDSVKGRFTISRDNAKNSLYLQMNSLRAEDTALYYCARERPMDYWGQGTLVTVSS VL: DIQMTQSPSTLSASVGDRVTITCRASQDVGTAVAWYQQKPGQPPKLLIYWASTRHTGVPDRFSGSGSGTDFTLTISSLQAEDFAVYYCHQHSSNPLTFGQGTKLEIK
kon [M⁻¹ s⁻¹]: 339000
--
BINDER: VH3/Vκ5 (antibody, V domains shown) VH: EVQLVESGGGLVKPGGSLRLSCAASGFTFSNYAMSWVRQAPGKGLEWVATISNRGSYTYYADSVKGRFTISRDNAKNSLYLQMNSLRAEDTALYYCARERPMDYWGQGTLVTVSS VL: DIQMTQSPSTLSASVGDRVTITCRASQDVGTAVAWYQQKPGQPPKLLIYWASTRHTGVPDRFSGSGSGTDFTLTISSLQAEDFATYYCHQHSSNPLTFGQGTKLEIK
kon [M⁻¹ s⁻¹]: 285000
